test.conditions: rat, in vivo, inhaled or intranasal
measurement.kind: half-life

>>> result("CC[C@H](C)[C@H](NC(=O)[C@H](CO)NC(=O)[C@@H](NC(=O)[C@@H]1CCCN1C(=O)[C@H](C)NC(=O)[C@@H](N)CC(N)=O)C(C)C)C(=O)N1CCC[C@H]1C(=O)N[C@@H](CCC(N)=O)C(=O)O")
"~15 min"
